tested on: U2OS; assay: Incucyte cell viability with U2OS; assay type: toxicity, cell-based; details: human, 18 h, 10 µM, compound concentration 10 uM, replicate number 2; note: unitless GR value; below 1 slowed growth and below 0 cell loss
Consider the following partition of reported Growth Rate into named classes: group 1: < 0.8; group 2: ≥ 0.8 and < 0.9; group 3: ≥ 0.9

Cc1ccc(S(=O)(=O)Nc2ccc(-n3nc(C(F)(F)F)cc3C(F)(F)F)cc2)cc1 = group 2
Cn1ncnc1COc1nn2c(-c3cc(F)ccc3F)nnc2cc1C(C)(C)C = group 1
CCS(=O)(=O)c1ccc(OC)c(Nc2ncc(-c3cccc(F)c3)o2)c1 [GW621970X] = group 2
CCOC(=O)C1Cc2ccccc2CN1C(=O)c1ccc(SC)s1 (stereo unspecified) = group 3
Cc1cnc(Nc2ccc(C(=O)N3CCN(C)CC3)cc2)nc1N[C@@H]1CCC[C@@H]1C(N)=O = group 1
CC[N+](CC)(CC)CCOc1ccc(/C=C/c2ccccc2)cc1.[I-] [STILONIUM IODIDE] = group 3
COc1cc(C(=O)NC2CCN(C)CC2)ccc1Nc1ncc2c(n1)N(C1CCCC1)CC(F)(F)C(=O)N2C = group 1

Alright, here's another molecule for you.
Problem: Please let me know in which category the item CCCCC/C=C/C=C1/C(=O)C=C[C@@H]1C/C=C\CCCC(=O)O belongs.
Solution: group 1
